Data origin: patent US20210115040A1

Measurement Target: recombinant human Meningioma Expressed Antigen 5 (MGEA5), also referred to as O-GlcNAcase (OGA) (Homo sapiens, UniProt O60502)
Construct: Full length OGA enzyme was purchased at OriGene (cat #TP322411); purchased OriGene TP322411
Sequence (O60502 whole entry): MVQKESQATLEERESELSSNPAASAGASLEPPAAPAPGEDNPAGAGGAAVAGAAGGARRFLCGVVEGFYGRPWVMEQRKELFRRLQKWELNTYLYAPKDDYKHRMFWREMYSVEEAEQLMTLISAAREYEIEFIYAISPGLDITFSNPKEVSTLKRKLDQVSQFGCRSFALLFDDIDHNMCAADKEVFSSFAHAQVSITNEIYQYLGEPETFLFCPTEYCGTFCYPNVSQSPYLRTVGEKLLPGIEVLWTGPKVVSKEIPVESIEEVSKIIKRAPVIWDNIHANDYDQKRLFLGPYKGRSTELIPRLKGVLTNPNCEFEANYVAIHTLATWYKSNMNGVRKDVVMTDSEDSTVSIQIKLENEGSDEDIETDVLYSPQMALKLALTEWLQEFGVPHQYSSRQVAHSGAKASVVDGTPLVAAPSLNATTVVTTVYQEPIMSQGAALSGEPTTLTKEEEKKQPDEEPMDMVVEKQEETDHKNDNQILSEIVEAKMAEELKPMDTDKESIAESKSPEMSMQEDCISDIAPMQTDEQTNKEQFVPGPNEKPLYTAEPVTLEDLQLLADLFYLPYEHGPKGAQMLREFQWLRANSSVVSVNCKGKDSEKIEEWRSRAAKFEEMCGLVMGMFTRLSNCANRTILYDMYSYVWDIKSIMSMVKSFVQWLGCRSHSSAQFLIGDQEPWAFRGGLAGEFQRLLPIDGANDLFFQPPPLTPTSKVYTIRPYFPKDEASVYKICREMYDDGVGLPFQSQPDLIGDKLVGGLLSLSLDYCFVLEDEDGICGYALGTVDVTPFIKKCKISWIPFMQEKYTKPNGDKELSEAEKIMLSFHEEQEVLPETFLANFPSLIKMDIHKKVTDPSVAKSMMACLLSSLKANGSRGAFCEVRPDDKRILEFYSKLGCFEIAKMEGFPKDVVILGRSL
Measurement Description: OGA biochemical assay (inhibition of FM-GlcNAc hydrolysis, fluorescence)
Recorded Conditions: FM-GlcNAc substrate, maximal effect, read-out: Enzymatic Emax (%)
Task for the reader: assign each of the following compounds its reported Emax.
A number alone suffices; assume %.

Please look up its Emax: Cc1cc(C[C@@H]2CCN(C(C)c3nc4nc(C)sc4cc3F)C2)cc(C)n1 (single isomer, unassigned) [Compound 93]
92

Now this one: COc1cc(N[C@H]2CCCN(C(C)c3ccc4sc(C)nc4n3)C2)cc(C)n1 (stereo partly shown)
96

Another compound to check: Cc1cc(C[C@H]2CCCN(C(C)c3ccc4cn(C)nc4c3)C2)cc(C)n1 (mixture of isomers)
97

What do you get for Cc1cc([C@H]2CCCN([C@@H](C)c3nc4nc(C)sc4cc3F)C2)cc(C)n1 (single isomer, unassigned) ?
99
